Values from patent US20260347464

Hi there, I'd appreciate the recorded EC50 for every entry that follows.
# systemName: T1, MusCD100-His (mouse, UniProt O09126)
# T1 chain: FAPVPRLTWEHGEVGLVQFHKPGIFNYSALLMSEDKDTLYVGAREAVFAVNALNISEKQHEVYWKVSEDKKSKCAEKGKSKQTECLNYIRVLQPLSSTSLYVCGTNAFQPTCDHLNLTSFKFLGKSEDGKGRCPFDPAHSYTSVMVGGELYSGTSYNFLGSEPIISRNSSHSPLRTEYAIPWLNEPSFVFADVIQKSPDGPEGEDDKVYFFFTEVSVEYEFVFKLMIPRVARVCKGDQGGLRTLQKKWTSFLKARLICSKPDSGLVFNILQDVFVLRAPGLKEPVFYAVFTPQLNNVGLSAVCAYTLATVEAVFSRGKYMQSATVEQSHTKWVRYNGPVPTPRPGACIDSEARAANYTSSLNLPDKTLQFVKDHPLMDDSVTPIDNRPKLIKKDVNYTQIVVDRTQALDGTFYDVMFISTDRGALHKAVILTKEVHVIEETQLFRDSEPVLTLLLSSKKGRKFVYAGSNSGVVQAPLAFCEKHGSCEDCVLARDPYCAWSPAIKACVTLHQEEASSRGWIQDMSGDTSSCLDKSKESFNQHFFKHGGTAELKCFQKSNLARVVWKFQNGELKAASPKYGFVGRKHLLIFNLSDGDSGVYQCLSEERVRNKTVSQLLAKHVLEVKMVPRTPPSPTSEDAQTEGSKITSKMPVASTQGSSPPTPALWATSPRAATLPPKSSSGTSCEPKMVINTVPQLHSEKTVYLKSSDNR
# runDescription: ELISA

Examples with their reported EC50 follow.
[
  {
    "binder": "H96 (antibody, V domains shown) VH: QVQLQQWGAGLLKPSETLSLTCAVYGGSFSGYYWSWIRQPPGKGLEWIGEINHSGSTNYNPSLKSRVTISVDTSKNQFSLKLSSVTAADTAVYYCARESNSYGYGTDYWGQGTLVTVSS VL: QSALTQPPSVSVSPGQTATITCSGDKLGEKYAFWYQQKPGQSPVLVIYQDNKRPSGIPERFTGSNSGNTATLTIFGTQTMDEADYYCQAWDSSTYVFGTGTKVTVL",
    "reportedValue": "0.0109 µg/mL"
  },
  {
    "binder": "A15 (antibody, V domains shown) VH: EVQLLESGGGLIQPGGSLRLSCAASGFTVSSNYMSWVRQAPGKGLEWVSVIYSGGSTYYADSVKGRFTISRDNSKNTLYLQMNSLRAEDTAVYYCAREVEGGMDVWGQGTTVTVSS VL: SYVLTQPPSVSVSPGQTASIICSGDKLGDKYVYWYQQKSGQSPVLVIYQDRKRPSGIPERFSGSNSGNTASLAISGLQSEDEADYYCAAWDDSLNGWVFGGGTKLTVL",
    "reportedValue": "0.0101 µg/mL"
  }
]

Exam item: Value lookup for EC50; key = B13 (antibody, V domains shown) VH: QVQLQQWGAGLLKPSETLSLTCAISSGSFSGYYWTWIRQPPGKGLEWIGETNHNGFTTYNTSLKSRITISIDASKNQFYLNLSSVTAADTATYFCARGPAYYADALDGFDIWGQGTMVTVSS VL: QSVLTQPPSVSVSPGQTASITCSGDKLGDKYVSWYQQKPGQSPVLVIYQDNKRPSGIPERFSGSNSGNTATLTISGTQAMDEADYYCQAWDSSTKAYVFGAGTKVTVL
Marked response: 0.00842 µg/mL
